The origin of these recorded values is the supplement of paper PMC10567573.

B1: EPB41L3 (parent)
chain: SDYISEFRFAPNHTKELEDKVIEL

# Variants of: B1
# TEST_METHOD_NOTES: protein stability index of a GFP-peptide fusion (GPS, HEK-293T) (PSI 1-6); higher = more stable;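 further: lentivirally expressed fusions sorted by FACS into six bins by GFP to DsRed ratio, PSI derived from sequencing read proportions per bin multiplied by bin number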
# STATED_CONDITIONS: c terminus: a fixed tail appended
Recorded protein stability index by entry

| SEQUENCE_VARIANT | protein stability index |
| --- | --- |
| Y3V | 1.97 |
| K15N | 2.12 |
| A10C | 1.56 |
| F9G | 4.6 |
| L17V | 2.68 |
| I4P | 3.76 |
| V21M | 3.45 |
| K20W | 1.4 |
| A10L | 3.45 |
| L17M | 2.47 |
| L17A | 1.87 |
| P11F | 2.16 |
| E23A | 1.9 |
| R8T | 3.99 |
| P11D | 4.29 |
| R8N | 3.94 |
| N12F | 1.9 |
| E18C | 1.44 |
| A10D | 4.37 |
| E6I | 2.12 |
| S1P | 2.71 |
| L17H | 1.84 |
| V21H | 1.85 |
| A10H | 1.86 |
| F9T | 4.24 |
| A10I | 2.33 |
| E18D | 1.49 |
| E23H | 2.18 |
| D19M | 2.03 |
| E18I | 2.19 |
| I22G | 2.79 |
| E23L | 1.93 |
| K20T | 1.68 |
| I22S | 3.18 |
| E23I | 1.55 |
| S1D | 2.25 |
| K20C | 2.13 |
| A10K | 3.99 |
| K15H | 1.97 |
| E18L | 1.77 |
| D2E | 2.48 |
| I4V | 3.02 |
| E6G | 2.28 |
| A10Q | 2.35 |
| S5F | 1.74 |
| S5Y | 1.66 |
